Target: T1, hnRNPLL RRM1 V136D (thunder) (Mus musculus, UniProt Q921F4 109-213, V136D)
T1 sequence: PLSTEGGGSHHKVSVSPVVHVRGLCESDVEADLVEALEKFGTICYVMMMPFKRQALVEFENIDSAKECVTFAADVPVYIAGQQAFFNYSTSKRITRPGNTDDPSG
Assay: NMR titration
pKd: −log10 of the molar value.
measure: pKd

>>> quantitative_readout("CCUUACCUGCACGCA (ssRNA) [Ptprc exon 6 ARS 15-mer WT]")
5.70

The values you see were collected from paper PMC3057111.
